This section presents molecules with their documented growth inhibition values.
Experiment: NCI Yeast Anticancer Drug Screen. Data for the cln2 rad14 strain (AID 165);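 note: 0% = growth equal to vehicle treated cultures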
Details: S. cerevisiae cln2 rad14 strain, at 50.0 µM, stronger effect = higher value
This is part of a sample that, as a whole, favours compounds with a hit. Of some 79,000 tested, about 15% had one in any assay.

| MOLECULE | growth inhibition [%] |
| --- | --- |
| CC1CCC(C(C)C)C(OC(=O)Nc2ccc(S(=O)(=O)N(C)C)cc2)C1 (stereo unspecified) | 95.5 |
| C=C(CN1CCCC1)C(=O)c1ccc(OC)cc1 | -20.4 |
| O=C(/C=C/c1cc(O)c(O)cc1O)OCCc1ccccc1 | 53.7 |
| COc1cc(OC)c(C(=O)[O][Sn]([c]2ccccc2)([c]2ccccc2)[c]2ccccc2)cc1OC | 90.5 |
| NC(CCCCCC(N)C(=O)O)C(=O)O (stereo unspecified) | 76.8 |
| CCc1c(C)[nH]c(-c2csc(N)n2)c1C | 31.7 |
| O=C(O)c1c2c(cc3c1CC1(Cc4ccccc4C1=O)C3)CCC2 (stereo unspecified) | 84.2 |
| CCCCCCCCCCC[N+]1(Cc2ccccc2)CC2CCN(Cc3ccccc3)CC2C1 (stereo unspecified) | 99.4 |
| CCOC(=O)C1SC(=Nc2cccc(Cl)c2C)N=C1C (stereo unspecified) | 86 |
| COC(C(=O)C1=C2Oc3c4c(cc(O)c3C(=O)C2C2=C(CCCC2)C1=O)OC(C)(C)C=C4)C(C)CCC=C(C)C (stereo unspecified) | 80.9 |
| CC(C)(Oc1ccc(-c2cccc3ccccc23)cc1)C(=O)O | 70.5 |
